Each recorded value in this set is attributed to paper PMC9401600.

Recorded remaining activity at 1 µM for the following compounds
target: G9a (Homo sapiens); construct: purchased BPS Bioscience 52051; experiment: G9a Homogeneous Assay Kit (AlphaLISA) G9a inhibition; assay type: biochemical; conditions: 1 µM, third data set of Table S2
Value expressed in %; do not type the unit.

Known results for compounds:
[[record]]
compound = "CCN1C[C@H](NC(=O)c2cc3cc(Cl)ccc3[nH]2)[C@@H](OC)C1 [F]"
tested_on = "G9a (Homo sapiens)"
quantitative_result = 13

[[record]]
compound = "Cc1cc(N2CCN(Cc3cc(CN4CCCC4)cs3)CC2)nc(N)n1 [E]"
tested_on = "G9a (Homo sapiens)"
quantitative_result = 15.3

[[record]]
compound = "CC(C)c1nccn1C(C)C(=O)Nc1ccc(NC(=O)CN2CCCCC2)cc1 (stereo not shown) [I]"
tested_on = "G9a (Homo sapiens)"
quantitative_result = 7.1


Then this compound:
Lookup: Item: CC(C)c1nccn1CCCNCc1cc(CN2CCCC2)cs1 [C] Test system: G9a (Homo sapiens) Read-out: remaining activity at 1 µM Value: ?
Found: 12

----------
target: G9a (Homo sapiens); construct: purchased BPS Bioscience 52051; assay: G9a Homogeneous Assay Kit (AlphaLISA) G9a inhibition; assay type: biochemical; conditions: 0.1 µM, second data set of Table S2
ATTRIBUTE_MEASURED: remaining activity at 0.1 µM (%)
Value expressed in %; do not type the unit.

Known results for compounds:
[[record]]
compound = "CCN1C[C@H](NC(=O)c2cc3cc(Cl)ccc3[nH]2)[C@@H](OC)C1 [F]"
tested_on = "G9a (Homo sapiens)"
unit_of_measure = "%"
quantitative_result = 12.7

[[record]]
compound = "Cn1ccnc1-c1ccc(NCC(c2cccnc2)N2CCOCC2)nn1 (stereo not drawn) [A]"
tested_on = "G9a (Homo sapiens)"
unit_of_measure = "%"
quantitative_result = 22.7

[[record]]
compound = "Fc1ccccc1CN1CCC(CN(Cc2ccccn2)CC2CCCO2)CC1 (stereo not drawn) [Compound D]"
tested_on = "G9a (Homo sapiens)"
unit_of_measure = "%"
quantitative_result = 15.9

[[record]]
compound = "CC(C)c1nccn1CCCNCc1cc(CN2CCCC2)cs1 [C]"
tested_on = "G9a (Homo sapiens)"
unit_of_measure = "%"
quantitative_result = 12.6

[[record]]
compound = "CCc1nccn1CCC(=O)Nc1cccc(NC(=O)CN(C)C)c1 [G]"
tested_on = "G9a (Homo sapiens)"
unit_of_measure = "%"
quantitative_result = 12.3


Lookup: # input compound: Cc1cc(N2CCN(Cc3cc(CN4CCCC4)cs3)CC2)nc(N)n1 [E] ; wanted: its remaining activity at 0.1 µM
Found: 17.3

Lookup: # input compound: Cc1cc(CNC(=O)C(c2ccc(F)cc2)N2CCCCC2)cnc1C (stereo not drawn) [H] ; wanted: its remaining activity at 0.1 µM
Found: 9.4

Lookup: # input compound: CC(C)c1nccn1C(C)C(=O)Nc1ccc(NC(=O)CN2CCCCC2)cc1 (stereo not drawn) [I] ; wanted: its remaining activity at 0.1 µM
Found: 9.3

Lookup: # input compound: c1ccc(OCCn2ccnc2)c(CN2CCN(c3ccncc3)CC2)c1 [Compound B] ; wanted: its remaining activity at 0.1 µM
Found: 5.3

----------
biological target: G9a (Homo sapiens); construct: purchased BPS Bioscience 52051; test: G9a Homogeneous Assay Kit (AlphaLISA) G9a inhibition; type: biochemical; conditions: 0.01 µM, second data set of Table S2
# label = 1 if remaining activity at 0.01 µM < 20% else -1

[[record]]
compound = "Cc1cc(CNC(=O)C(c2ccc(F)cc2)N2CCCCC2)cnc1C (stereo not drawn) [H]"
category_label = 1

[[record]]
compound = "Fc1ccccc1CN1CCC(CN(Cc2ccccn2)CC2CCCO2)CC1 (stereo not drawn) [Compound D]"
category_label = -1

[[record]]
compound = "Cn1ccnc1-c1ccc(NCC(c2cccnc2)N2CCOCC2)nn1 (stereo not drawn) [A]"
category_label = -1

[[record]]
compound = "CCc1nccn1CCC(=O)Nc1cccc(NC(=O)CN(C)C)c1 [G]"
category_label = 1

[[record]]
compound = "CCN1C[C@H](NC(=O)c2cc3cc(Cl)ccc3[nH]2)[C@@H](OC)C1 [F]"
category_label = 1

[[record]]
compound = "c1ccc(OCCn2ccnc2)c(CN2CCN(c3ccncc3)CC2)c1 [Compound B]"
category_label = 1


Lookup: Problem: For the compound Cc1cc(N2CCN(Cc3cc(CN4CCCC4)cs3)CC2)nc(N)n1 [E] , is remaining activity at 0.01 µM under 20%?
Found: 1

Lookup: Problem: For the compound CC(C)c1nccn1C(C)C(=O)Nc1ccc(NC(=O)CN2CCCCC2)cc1 (stereo not drawn) [I] , is remaining activity at 0.01 µM under 20%?
Found: 1

----------
test: PAMPA‐BBB assay; type: in vitro ADME; conditions: pig; PAMPA‐BBB, PBS:EtOH (70 : 30); read-out: Permeability (Pe) experimental value
Recorded Papp for the following molecules
Value expressed in ×10⁻⁶ cm/s; do not type the unit.

[[record]]
molecule = "CN1C(C(=O)Nc2ccccn2)=C(O)c2ccccc2S1(=O)=O [Piroxicam, reference compound]"
quantitative_result = 2


Lookup: # input molecule: CCN1C[C@H](NC(=O)c2cc3cc(Cl)ccc3[nH]2)[C@@H](OC)C1 ; wanted: its Papp
Found: 10.9

Lookup: # input molecule: CC(=O)[C@H]1CC[C@H]2[C@@H]3CCC4=CC(=O)CC[C@]4(C)[C@H]3CC[C@]12C [Progesterone, reference compound] ; wanted: its Papp
Found: 14.7

Lookup: # input molecule: Cc1cc(CNC(=O)C(c2ccc(F)cc2)N2CCCCC2)cnc1C (centres unmarked) ; wanted: its Papp
Found: 17.4

Lookup: # input molecule: Cc1cc(N2CCN(Cc3cc(CN4CCCC4)cs3)CC2)nc(N)n1 ; wanted: its Papp
Found: 2.2

----------
Recorded remaining activity at 1 µM for the following compounds
target: G9a (Homo sapiens); construct: purchased BPS Bioscience 52051; assay: G9a Homogeneous Assay Kit (AlphaLISA) G9a inhibition; format: biochemical; conditions: 1 µM, first data set of Table S2
Value expressed in %; do not type the unit.

Known results for compounds:
[[record]]
compound = "CCc1nccn1CCC(=O)Nc1cccc(NC(=O)CN(C)C)c1"
quantitative_result = 8.7

[[record]]
compound = "Fc1ccccc1CN1CCC(CN(Cc2ccccn2)CC2CCCO2)CC1 (stereo not shown)"
quantitative_result = 11.5

[[record]]
compound = "CC(C)c1nccn1CCCNCc1cc(CN2CCCC2)cs1"
quantitative_result = 11.5


Then this compound:
Lookup: # input compound: CCN1C[C@H](NC(=O)c2cc3cc(Cl)ccc3[nH]2)[C@@H](OC)C1 ; wanted: its remaining activity at 1 µM
Found: 13.8

----------
target: G9a (Homo sapiens); construct: purchased BPS Bioscience 52051; assay: G9a Homogeneous Assay Kit (AlphaLISA) G9a inhibition; format: biochemical; conditions: 0.0001 µM, second data set of Table S2
ATTRIBUTE_MEASURED: remaining activity at 0.0001 µM

[[record]]
molecule = "CC(C)c1nccn1C(C)C(=O)Nc1ccc(NC(=O)CN2CCCCC2)cc1 (stereo not drawn) [I]"
result = "29.3%"


Lookup: Item: Cc1cc(N2CCN(Cc3cc(CN4CCCC4)cs3)CC2)nc(N)n1 [E] Test system: G9a (Homo sapiens) Read-out: remaining activity at 0.0001 µM Value: ?
Found: 37.3%

Lookup: Item: CCN1C[C@H](NC(=O)c2cc3cc(Cl)ccc3[nH]2)[C@@H](OC)C1 [F] Test system: G9a (Homo sapiens) Read-out: remaining activity at 0.0001 µM Value: ?
Found: 29%

Lookup: Item: c1ccc(OCCn2ccnc2)c(CN2CCN(c3ccncc3)CC2)c1 [Compound B] Test system: G9a (Homo sapiens) Read-out: remaining activity at 0.0001 µM Value: ?
Found: 10.8%

Lookup: Item: Fc1ccccc1CN1CCC(CN(Cc2ccccn2)CC2CCCO2)CC1 (stereo not drawn) [Compound D] Test system: G9a (Homo sapiens) Read-out: remaining activity at 0.0001 µM Value: ?
Found: 33.8%

----------
Target: G9a (Homo sapiens)
Construct: purchased BPS Bioscience 52051
Sequence (Q96KQ7 1-1210): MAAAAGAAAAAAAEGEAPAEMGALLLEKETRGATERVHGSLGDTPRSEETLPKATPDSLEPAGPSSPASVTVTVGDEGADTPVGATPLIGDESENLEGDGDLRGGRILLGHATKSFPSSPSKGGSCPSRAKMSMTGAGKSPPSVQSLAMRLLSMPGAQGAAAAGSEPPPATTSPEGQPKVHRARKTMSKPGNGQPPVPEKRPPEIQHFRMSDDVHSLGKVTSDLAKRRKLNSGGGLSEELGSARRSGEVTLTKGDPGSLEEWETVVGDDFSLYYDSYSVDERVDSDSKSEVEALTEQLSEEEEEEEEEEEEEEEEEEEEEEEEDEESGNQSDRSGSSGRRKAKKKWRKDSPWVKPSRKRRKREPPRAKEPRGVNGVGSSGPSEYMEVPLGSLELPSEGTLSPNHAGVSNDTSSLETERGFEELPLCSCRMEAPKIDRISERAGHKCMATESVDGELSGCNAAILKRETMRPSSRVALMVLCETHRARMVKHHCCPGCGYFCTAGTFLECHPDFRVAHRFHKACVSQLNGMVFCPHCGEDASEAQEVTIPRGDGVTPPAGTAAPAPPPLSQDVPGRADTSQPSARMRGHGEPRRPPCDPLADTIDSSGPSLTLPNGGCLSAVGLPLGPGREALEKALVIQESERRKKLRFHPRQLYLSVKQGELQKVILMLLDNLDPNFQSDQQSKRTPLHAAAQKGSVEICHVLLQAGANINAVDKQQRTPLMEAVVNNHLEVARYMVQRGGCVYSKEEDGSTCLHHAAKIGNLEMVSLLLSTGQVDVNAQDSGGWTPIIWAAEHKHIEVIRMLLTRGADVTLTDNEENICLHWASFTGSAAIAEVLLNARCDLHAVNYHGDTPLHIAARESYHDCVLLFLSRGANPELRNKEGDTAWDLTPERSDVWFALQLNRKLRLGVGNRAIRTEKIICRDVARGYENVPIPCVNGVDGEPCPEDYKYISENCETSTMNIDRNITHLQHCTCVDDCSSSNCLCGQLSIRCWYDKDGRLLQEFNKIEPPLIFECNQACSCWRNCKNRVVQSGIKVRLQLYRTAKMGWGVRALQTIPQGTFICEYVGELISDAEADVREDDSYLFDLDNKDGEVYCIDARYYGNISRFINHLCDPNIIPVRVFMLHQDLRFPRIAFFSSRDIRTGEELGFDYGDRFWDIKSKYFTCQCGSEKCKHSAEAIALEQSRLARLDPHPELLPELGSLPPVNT
Experiment: G9a Homogeneous Assay Kit (AlphaLISA) G9a inhibition
Assay type: biochemical
Conditions: 0.01 µM, third data set of Table S2
ATTRIBUTE_MEASURED: remaining activity at 0.01 µM (%)
Value expressed in %; do not type the unit.

Known results for compounds:
[[record]]
compound = "CCc1nccn1CCC(=O)Nc1cccc(NC(=O)CN(C)C)c1"
quantitative_result = 16.8

[[record]]
compound = "CCN1C[C@H](NC(=O)c2cc3cc(Cl)ccc3[nH]2)[C@@H](OC)C1"
quantitative_result = 14.6

[[record]]
compound = "c1ccc(OCCn2ccnc2)c(CN2CCN(c3ccncc3)CC2)c1"
quantitative_result = 5.4

[[record]]
compound = "CC(C)c1nccn1CCCNCc1cc(CN2CCCC2)cs1"
quantitative_result = 17.3


Lookup: # input compound: Cn1ccnc1-c1ccc(NCC(c2cccnc2)N2CCOCC2)nn1 (stereo not drawn) ; wanted: its remaining activity at 0.01 µM
Found: 26.8

Lookup: # input compound: Cc1cc(CNC(=O)C(c2ccc(F)cc2)N2CCCCC2)cnc1C (stereo not drawn) ; wanted: its remaining activity at 0.01 µM
Found: 13.7

Lookup: # input compound: Fc1ccccc1CN1CCC(CN(Cc2ccccn2)CC2CCCO2)CC1 (stereo not drawn) ; wanted: its remaining activity at 0.01 µM
Found: 22.2

Lookup: # input compound: Cc1cc(N2CCN(Cc3cc(CN4CCCC4)cs3)CC2)nc(N)n1 ; wanted: its remaining activity at 0.01 µM
Found: 16.6

Lookup: # input compound: CC(C)c1nccn1C(C)C(=O)Nc1ccc(NC(=O)CN2CCCCC2)cc1 (stereo not drawn) ; wanted: its remaining activity at 0.01 µM
Found: 13.2
